Test system: T-47D breast
Experiment: NCI tumour cell line growth inhibition, 48 h
quantity.measured: TGI

# compound, meas.value
measured = [
    ("S=C(S)NCC1CCC(CNC(=S)S)CC1 (configuration not stated)", "38.9 µM"),
    ("COc1ccc2nc3cc(Cl)ccc3c(NCCNCCCNC(=O)c3cc(-c4ccccc4)nc4ccccc34)c2c1", "> 100 µM"),
    ("CSc1ccc(/C=C2\\C=C(CC(=O)NCc3ccc(C(=O)c4ccccc4)cc3)c3cc(F)ccc32)cc1", "44 µM"),
    ("COC(=O)CCCCCN=Cc1c(O)c(O)c(C(C)C)c2cc(C)c(-c3c(C)cc4c(C(C)C)c(O)c(O)c(C=NCCCCCC(=O)OC)c4c3O)c(O)c12", "29.4 µM"),
    ("O=C1CCCN1CC#CCN1CCCC1", "> 100 µM"),
    ("Cc1cc(C)n(CN(Cn2nc(C)cc2C)C2CCCCC2)n1", "76.2 µM"),
    ("CCN(CCNc1ccc(C)c2sc3ccccc3c(=O)c12)CC(C)(C)O", "47.3 µM"),
    ("O=C(NCc1ccc(Cl)cc1)c1cc2sccc2nc1C(F)(F)F", "> 100 µM"),
    ("O=c1oc2ccc(Cl)cc2cc1-c1cn2cc(Cl)ccc2n1", "> 100 µM"),
    ("CC(C)(C)OC[C@H](O)CC#N", "> 100 µM"),
    ("Cc1cc(-c2nnc3n2CCCCC3)c(C)n1-c1ccc(Cl)c(Cl)c1", "30.8 µM"),
    ("O=C1NC2(CN3CCC2CC3)C(=O)N1CN(Cc1ccccc1)c1ccccc1 (configuration not stated)", "> 100 µM"),
    ("O=c1[nH]c2cc3[nH]c4ncccc4c(=O)c3cc2[nH]1", "> 10 µM"),
    ("CN(C)C(=O)O[C@@H]1CN[C@@H](C#Cc2cc3ncnc(Nc4ccc(OCc5cccc(F)c5)c(Cl)c4)c3s2)C1", "> 25 µM"),
    ("C/C(O)=C/c1nc2ccc([N+](=O)[O-])cc2nc1/C=C(/C)O", "87.6 µM"),
    ("CCC(c1cccc(O)c1)C(CC)c1cccc(O)c1 (configuration not stated)", "17.1 µM"),
    ("CCO/C(O)=C(/C(=N)N1CCCC1)C(=O)Nc1cccc(C(F)(F)F)c1", "> 100 µM"),
    ("Cn1c2ccccc2c2c3c(c4c5ccccc5n(C)c4c21)C(=O)c1ccccc1C3=O", "> 100 µM"),
    ("CC(=O)Nc1ccc(S(=O)(=O)NNC(=O)c2cccnc2Nc2ccc(Cl)cc2)cc1", "> 100 µM"),
    ("COC1CC(OC(=O)c2ccccc2)C(OC(=O)c2ccccc2)C(C)O1 (configuration not stated)", "> 100 µM"),
    ("O=C(O)CSc1ncccc1[N+](=O)[O-]", "> 100 µM"),
    ("O=c1[nH]c(Nc2cccc(Cl)c2)nc2nc[nH]c12", "> 100 µM"),
]

----------
Reported TGI by item:
System: UACC-257 melanoma
Test: NCI tumour cell line growth inhibition, 48 h

# compound, TGI
rows = [
    ("COc1cc(/C=C2\\CCC(C)C3=C2NC(=S)NC3c2cc(OC)c(OC)c(OC)c2)cc(OC)c1OC (stereo unspecified)", "> 100 µM"),
    ("C1=CC=C2NCCOCCNC3=CC=CC=CC3=NCCOCCN=C2C=C1", "44.6 µM"),
    ("COc1cc2nc(-c3ccc(C(F)(F)F)cc3)cc(OCCCN3CCCCC3)c2cc1OC", "5.27 µM"),
    ("C[C@]12CC[C@H](O)CC1=CC[C@@H]1[C@@H]2CC[C@]2(C)/C(=N/OCCN3CCCC3)CC[C@@H]12", "27.7 µM"),
    ("FCc1ncc(-c2ccc(C(F)(F)F)cc2)c(NC2CCCCCC2)n1", "> 10 µM"),
    ("COC1CC(OC(=O)c2ccccc2)C(OC(=O)c2ccccc2)C(C)O1 (stereo unspecified)", "> 100 µM"),
    ("CC(C)CNC(=O)Cn1c(-c2ccccc2)cc2ccccc21", "> 100 µM"),
    ("COc1ccc2c(c1)[n+]([O-])c(/C(C)=N/NC(=O)CC#N)c[n+]2[O-]", "> 100 µM"),
    ("Cc1cc(C)n(CN(Cn2nc(C)cc2C)C2CCCCC2)n1", "78.4 µM"),
    ("N#CC(NNC(=O)c1ccccc1O)c1cccc(O)c1 (stereo unspecified)", "> 100 µM"),
    ("CC(=O)OC1[C@H]2c3cc4c(cc3CN3CCC(=C[C@@H]1O)C23)OCO4 (stereo partly specified)", "> 100 µM"),
    ("C[N+](C)(C)c1ncnc2c1ncn2C1CCCCO1 (stereo unspecified)", "> 100 µM"),
    ("CC1(Cl)CC2C(CC1Sc1nnnn1-c1ccccc1)C2(C)C (stereo unspecified)", "> 100 µM"),
    ("CCOC(=O)C(CS)NC(=O)CCCCCCCC(=O)NC(CS)C(=O)OCC (stereo unspecified)", "> 100 µM"),
    ("Fc1cccc(Cl)c1/C=N\\N=C1c2ccccc2-c2ccccc21", "> 100 µM"),
    ("Cc1ccc(N=Nc2c(C)c(C#N)c(=S)n(C3OC(CO)C(O)C(O)C3O)c2-c2ccccc2)cc1 (stereo unspecified)", "> 100 µM"),
    ("CCOC(=O)C(/C=N\\C(=S)Nc1ccc(OCC)cc1)=C(/O)c1ccccc1", "> 100 µM"),
    ("CC(C)OP(=O)(OC(C)C)C(C(C)C)N(C)/C(F)=N/C(F)(F)F (stereo unspecified)", "> 100 µM"),
    ("Cn1nc(S(N)(=O)=O)s/c1=N/C(N)=S", "> 100 µM"),
    ("O=C1Nc2cccc3cc(NCC(O)CCl)cc1c23 (stereo unspecified)", "> 100 µM"),
    ("COc1ccc(C2C(C#N)=C(S)N(C3OC(CO)C(O)C(O)C3O)C(c3ccccc3)=C2C(C)=O)cc1 (stereo unspecified)", "> 100 µM"),
]
